# test.parameters: 303.15 K; 101.33 kPa; Liquid
recorded.metric: mass density (kg/m3)
Give bare numbers, in kg/m3.

Illustrative cases are given below, each with its answer.
| compound | recorded.result |
| --- | --- |
| ClC(Cl)C(Cl)Cl | 1578.6 |
| COC(C)=O [methyl ethanoate] | 920.83 |

Consider the additional compound presented here.
Req: Name the reported mass density value associated with the compound "CCCCCCBr"
Resp: 1162.67

====

# test.parameters: 303.15 K; 101.33 kPa; Liquid
± gives the expanded uncertainty stated by the source.
Kindly supply the reported mass density values for the records listed here.
Include the unit right after the number.

| molecule | recorded.result |
| --- | --- |
| C1CCOC1 [tetrahydrofuran] | 876.7 ± 1.4 kg/m3 |
| CCCCOC(C)=O [butyl ethanoate] | 870.8 ± 0.44 kg/m3 |
| CCOC(C)=O [ethyl acetate] | 888.55 ± 0.44 kg/m3 |

Hey, quick one: what's mass density for each of these?
1. ClC(Cl)(Cl)Cl [tetrachloromethane]
2. CCCCCCCl [1-chlorohexane]

Resp:
1574.82 ± 1.1 kg/m3
868.78 ± 0.43 kg/m3
